The values you see were collected from patent EP0743064A1.

Read-out record for binding of tritiated LTB4 to guinea pig lung membranes (Cavia porcellus): Ki
Structures can show the parent of a compound that is named as a salt.
Dear colleague, please return just the value in nM, with no unit written.

The examples below pair each entry with its known result.
1. CCCc1c(OCCCOc2cc(O)c(-c3ccccc3)cc2CC)cccc1Oc1ccccc1C(=O)O [Example 61, sodium salt hemihydrate] = 14.1
2. CCc1cc(-c2ccc(F)cc2)c(O)cc1OCCCCCC(c1ccccc1)c1nn[nH]n1 (stereo not shown) = 6.31
3. CCc1cc(-c2ccc(C(F)(F)F)cc2)c(O)cc1OCCCCCC(C)(C)c1nn[nH]n1 [disodium salt] = 66.1

Here is another compound to look at.
# input Identify measured Ki obtained with binding of tritiated LTB4 to guinea pig lung membranes (Cavia porcellus) for CCc1cc(-c2cccc(N(C)C)c2)c(O)cc1OCCCCCC(C)(C)c1nn[nH]n1 [disodium salt] .
# Sequence (H0VYV8 1-348): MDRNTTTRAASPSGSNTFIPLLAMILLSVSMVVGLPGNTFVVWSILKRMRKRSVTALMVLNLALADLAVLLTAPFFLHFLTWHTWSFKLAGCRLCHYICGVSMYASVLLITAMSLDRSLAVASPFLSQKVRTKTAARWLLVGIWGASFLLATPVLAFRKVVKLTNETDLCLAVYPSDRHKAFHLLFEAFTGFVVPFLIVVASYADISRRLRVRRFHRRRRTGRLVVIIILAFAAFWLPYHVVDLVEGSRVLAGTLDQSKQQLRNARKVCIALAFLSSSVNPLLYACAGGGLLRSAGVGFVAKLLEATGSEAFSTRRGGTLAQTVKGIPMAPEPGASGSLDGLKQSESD
# output 63.1
